target: RNase H activity of HIV reverse transcriptase (Human immunodeficiency virus type 1 group M subtype B); test: Fluorescence (FRET)-based RNase H activity assay of HIV reverse transcriptase; type: biochemical, HIV-1; design: final concentration of 2.5 nM of the p51/p66 RT heterodimer in the assay; made in house; conditions: 10 μM inhibitor concentration; activity with analog / without analog x 100
Documented Residual activity (%) RNase H across a set of compounds
measurement_name: Residual activity (%) RNase H

Cc1c(C(O)CCC2CCCCC2)cc2n(c1=O)Cc1c-2nc2ccc(F)cc2c1[Si](C)(C)C (racemic): 103%
Cc1c(C(=O)C(C)(C)C)cc2n(c1=O)Cc1c-2nc2ccc(F)cc2c1-c1ccccc1: 95%
Cc1c(C(O)CCC2CCCCC2)cc2n(c1=O)Cc1c-2nc2ccc(F)cc2c1-c1ccccc1 (racemic): 99%
Cc1c(C(=O)CCC2CCCCC2)cc2n(c1=O)Cc1c-2nc2ccccc2c1-c1ccccc1: 73%
Cc1c(C(O)Cc2ccccc2)cc2n(c1=O)Cc1c-2nc2ccccc2c1[Si](C)(C)C (racemic): 93%
CCC(O)c1cc2n(c(=O)c1C)Cc1c-2nc2ccc(F)cc2c1[Si](C)(C)C(C)(C)C (racemic): 108%
CCCCCCc1c2c(nc3ccc(OC)cc13)-c1cc(C(O)CC)c(C)c(=O)n1C2 (racemic): 66%
Cc1c(C(O)CCC2CCCCC2)cc2n(c1=O)Cc1c-2nc2ccccc2c1[Si](C)(C)C(C)(C)C (racemic): 95%
CCC(=O)c1cc2n(c(=O)c1C)Cc1c-2nc2ccc(OC)cc2c1[Si](C)(C)C: 86%
Cc1c(C(O)C(C)(C)C)cc2n(c1=O)Cc1c-2nc2ccc(F)cc2c1[Si](C)(C)C (racemic): 102%
CCCCCCc1c2c(nc3ccc(F)cc13)-c1cc(C(=O)CC)c(C)c(=O)n1C2: 103%
COc1ccc2nc3c(c(-c4ccccc4)c2c1)Cn1c-3cc(C(O)Cc2ccccc2)c(C)c1=O (racemic): 79%
CCCCCCc1c2c(nc3ccccc13)-c1cc(C(=O)Cc3ccccc3)c(C)c(=O)n1C2: 92%

---

target: RNA-dependent DNA polymerase activity of HIV reverse transcriptase (Human immunodeficiency virus type 1 group M subtype B, UniProt P04585); construct: made in house; assay: RNA-dependent DNA polymerase activity assay of HIV reverse transcriptase; format: biochemical, HIV-1; settings: 10 μM inhibitor concentration; activity with analog / without analog x 100
measurement_name: Residual activity (%) Polymerase

COc1ccc2nc3c(c([Si](C)(C)C)c2c1)Cn1c-3cc(C(O)C(C)(C)C)c(C)c1=O (stereo not shown) [5Dβ]: 76
CCCCCCc1c2c(nc3ccc(F)cc13)-c1cc(C(=O)C(C)(C)C)c(C)c(=O)n1C2 [8Bβκ]: 44
CCC(O)c1cc2n(c(=O)c1C)Cc1c-2nc2ccc(OC)cc2c1[Si](C)(C)C(C)(C)C (stereo not shown) [4Dα]: 77
Cc1c(C(O)C(C)(C)C)cc2n(c1=O)Cc1c-2nc2ccc(F)cc2c1[Si](C)(C)C (racemic) [5Bβ]: 74
CCC(=O)c1cc2n(c(=O)c1C)Cc1c-2nc2ccc(F)cc2c1-c1ccccc1 [3Bακ]: 100
Cc1c(C(O)CCC2CCCCC2)cc2n(c1=O)Cc1c-2nc2ccccc2c1-c1ccccc1 (racemic) [3Aδ]: 32
CCCCCCc1c2c(nc3ccc(F)cc13)-c1cc(C(O)CCC3CCCCC3)c(C)c(=O)n1C2 (stereo not shown) [8Bδ]: 90
CCCCCCc1c2c(nc3ccc(C)cc13)-c1cc(C(=O)C(C)(C)C)c(C)c(=O)n1C2 [8Cβκ]: 66
Cc1ccc2nc3c(c([Si](C)(C)C)c2c1)Cn1c-3cc(C(O)Cc2ccccc2)c(C)c1=O (racemic) [5Cε]: 87
CCCCCCc1c2c(nc3ccccc13)-c1cc(C(=O)CCC3CCCCC3)c(C)c(=O)n1C2 [8Aδκ]: 63

---

target: RNA-dependent DNA polymerase activity of HIV reverse transcriptase (Human immunodeficiency virus type 1 group M subtype B, UniProt P04585); construct: made in house; assay: RNA-dependent DNA polymerase activity assay of HIV reverse transcriptase; assay type: biochemical, HIV-1; settings: 10 μM inhibitor concentration; activity with analog / without analog x 100
measurement_name: Residual activity (%) Polymerase

Cc1c(C(O)CCC2CCCCC2)cc2n(c1=O)Cc1c-2nc2ccc(F)cc2c1-c1ccccc1 (racemic): 81
Cc1c(C(O)C(C)(C)C)cc2n(c1=O)Cc1c-2nc2ccccc2c1[Si](C)(C)C(C)(C)C (racemic): 71
Cc1c(C(O)C(C)(C)C)cc2n(c1=O)Cc1c-2nc2ccccc2c1-c1ccccc1 (racemic): 54
CCC(=O)c1cc2n(c(=O)c1C)Cc1c-2nc2ccc(C)cc2c1[Si](C)(C)C: 93

---

target: RNase H activity of HIV reverse transcriptase (Human immunodeficiency virus type 1 group M subtype B); assay: Fluorescence (FRET)-based RNase H activity assay of HIV reverse transcriptase; format: biochemical, HIV-1; set-up: final concentration of 2.5 nM of the p51/p66 RT heterodimer in the assay; made in house; settings: 10 μM inhibitor concentration; activity with analog / without analog x 100
measurement_name: Residual activity (%) RNase H

Cc1c(C(=O)CCC2CCCCC2)cc2n(c1=O)Cc1c-2nc2ccccc2c1[Si](C)(C)C: 75
COc1ccc2nc3c(c(-c4ccccc4)c2c1)Cn1c-3cc(C(=O)Cc2ccccc2)c(C)c1=O: 88
CCCCCCc1c2c(nc3ccc(C)cc13)-c1cc(C(O)CCC3CCCCC3)c(C)c(=O)n1C2 (centres unmarked): 72
COc1ccc2nc3c(c([Si](C)(C)C)c2c1)Cn1c-3cc(C(=O)CCC2CCCCC2)c(C)c1=O: 92
CCCCCCc1c2c(nc3ccc(C)cc13)-c1cc(C(=O)Cc3ccccc3)c(C)c(=O)n1C2: 86
COc1ccc2nc3c(c(-c4ccccc4)c2c1)Cn1c-3cc(C(O)C(C)(C)C)c(C)c1=O (centres unmarked): 70
Cc1c(C(=O)C(C)(C)C)cc2n(c1=O)Cc1c-2nc2ccccc2c1[Si](C)(C)C(C)(C)C: 70
Cc1ccc2nc3c(c([Si](C)(C)C)c2c1)Cn1c-3cc(C(=O)C(C)(C)C)c(C)c1=O: 92

---

molecular target: RNA-dependent DNA polymerase activity of HIV reverse transcriptase (Human immunodeficiency virus type 1 group M subtype B); construct: made in house; experiment: RNA-dependent DNA polymerase activity assay of HIV reverse transcriptase; type: biochemical, HIV-1; conditions: 10 μM inhibitor concentration; activity with analog / without analog x 100
Residual activity (%) Polymerase below 60% gives not satisfied; Residual activity (%) Polymerase at or above it gives satisfied.

Cc1c(C(O)Cc2ccccc2)cc2n(c1=O)Cc1c-2nc2ccccc2c1[Si](C)(C)C (racemic): not satisfied
Cc1c(C(=O)C(C)(C)C)cc2n(c1=O)Cc1c-2nc2ccccc2c1[Si](C)(C)C: not satisfied
Cc1ccc2nc3c(c([Si](C)(C)C(C)(C)C)c2c1)Cn1c-3cc(C(=O)C(C)(C)C)c(C)c1=O: satisfied
CCCCCCc1c2c(nc3ccc(F)cc13)-c1cc(C(O)Cc3ccccc3)c(C)c(=O)n1C2 (racemic): satisfied
COc1ccc2nc3c(c([Si](C)(C)C)c2c1)Cn1c-3cc(C(O)CCC2CCCCC2)c(C)c1=O (stereo not shown): not satisfied
Cc1c(C(O)C(C)(C)C)cc2n(c1=O)Cc1c-2nc2ccc(F)cc2c1[Si](C)(C)C(C)(C)C (racemic): not satisfied
Cc1c(C(O)CCC2CCCCC2)cc2n(c1=O)Cc1c-2nc2ccc(F)cc2c1[Si](C)(C)C(C)(C)C (stereo not shown): not satisfied
CCCCCCc1c2c(nc3ccc(OC)cc13)-c1cc(C(=O)CCC3CCCCC3)c(C)c(=O)n1C2: satisfied
CCCCCCc1c2c(nc3ccc(OC)cc13)-c1cc(C(O)Cc3ccccc3)c(C)c(=O)n1C2 (stereo not shown): satisfied
Cc1c(C(O)CCC2CCCCC2)cc2n(c1=O)Cc1c-2nc2ccccc2c1[Si](C)(C)C (racemic): satisfied
CCCCCCc1c2c(nc3ccc(C)cc13)-c1cc(C(O)CCC3CCCCC3)c(C)c(=O)n1C2 (stereo not shown): satisfied
Cc1c(C(O)Cc2ccccc2)cc2n(c1=O)Cc1c-2nc2ccccc2c1-c1ccccc1 (stereo not shown): not satisfied
CCCCCCc1c2c(nc3ccccc13)-c1cc(C(O)Cc3ccccc3)c(C)c(=O)n1C2 (racemic): not satisfied
Cc1c(C(O)Cc2ccccc2)cc2n(c1=O)Cc1c-2nc2ccc(F)cc2c1[Si](C)(C)C (stereo not shown): not satisfied
CCCCCCc1c2c(nc3ccc(C)cc13)-c1cc(C(=O)Cc3ccccc3)c(C)c(=O)n1C2: satisfied
COc1ccc2nc3c(c([Si](C)(C)C)c2c1)Cn1c-3cc(C(=O)CCC2CCCCC2)c(C)c1=O: not satisfied

Values from patent US20040058948A1
